3' UTR reporter interaction score values, listed per item
System: NOTCH1
method-summary: 3' UTR reporter interaction score (median-centred robust z-score of log2 firefly/Renilla activity); higher = less repression of the 3' UTR reporter
measurement-setup: HEK293T; 48 h
endpoint: 3' UTR reporter interaction score

residue-sequence	system-name	endpoint	obs-value
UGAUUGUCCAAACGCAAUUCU	NOTCH1	3' UTR reporter interaction score	0.81
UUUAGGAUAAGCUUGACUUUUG	NOTCH1	3' UTR reporter interaction score	-0.42
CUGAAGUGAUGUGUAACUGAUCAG	NOTCH1	3' UTR reporter interaction score	2.11
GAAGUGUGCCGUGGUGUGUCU	NOTCH1	3' UTR reporter interaction score	-0.516
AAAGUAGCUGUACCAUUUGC	NOTCH1	3' UTR reporter interaction score	1.58
AAAGCGCUUCUCUUUAGAGGA	NOTCH1	3' UTR reporter interaction score	0.581
UCAAAUGCUCAGACUCCUGU	NOTCH1	3' UTR reporter interaction score	-0.149
CAACGGAAUCCCAAAAGCAGCU	NOTCH1	3' UTR reporter interaction score	0.629
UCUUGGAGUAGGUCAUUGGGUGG	NOTCH1	3' UTR reporter interaction score	-0.846
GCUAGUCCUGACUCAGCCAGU	NOTCH1	3' UTR reporter interaction score	-0.242
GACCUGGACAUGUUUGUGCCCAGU	NOTCH1	3' UTR reporter interaction score	-0.107
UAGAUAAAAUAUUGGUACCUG	NOTCH1	3' UTR reporter interaction score	-0.186
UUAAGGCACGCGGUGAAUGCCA	NOTCH1	3' UTR reporter interaction score	0.623
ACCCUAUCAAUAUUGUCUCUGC	NOTCH1	3' UTR reporter interaction score	-0.0515
UAGGUAGUUUCCUGUUGUUGG	NOTCH1	3' UTR reporter interaction score	0.244
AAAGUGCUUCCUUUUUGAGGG	NOTCH1	3' UTR reporter interaction score	0.985

====

System: RB1
method-summary: 3' UTR reporter interaction score (median-centred robust z-score of log2 firefly/Renilla activity); higher = less repression of the 3' UTR reporter
measurement-setup: HEK293T; 48 h
The threshold is inclusive: 3' UTR reporter interaction score of exactly 0.4 counts as Fulfilled; values below receive Not fulfilled.

residue-sequence	category-label
UGUGACUGGUUGACCAGAGGG	Not fulfilled
UGAGGUAGUAGUUUGUGCUGU	Fulfilled
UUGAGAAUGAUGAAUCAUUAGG	Not fulfilled
AGGAAUGUUCCUUCUUUGCC	Not fulfilled
UGGGCGUAUCUGUAUGCUA	Not fulfilled
UUUGGCAAUGGUAGAACUCACA	Fulfilled
AGGCUGCGGAAUUCAGGAC	Fulfilled
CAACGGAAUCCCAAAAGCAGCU	Fulfilled
UGUAAACAUCCUCGACUGGAAG	Fulfilled
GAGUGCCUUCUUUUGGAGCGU	Not fulfilled
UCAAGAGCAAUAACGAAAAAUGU	Not fulfilled
GAAGGCGCUUCCCUUUAGAGC	Not fulfilled
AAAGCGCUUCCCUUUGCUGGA	Not fulfilled
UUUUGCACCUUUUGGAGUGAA	Not fulfilled
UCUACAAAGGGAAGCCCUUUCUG	Fulfilled
AACUGGCCUACAAAGUCCCAG	Not fulfilled

====

Tested on: HRAS
method-summary: 3' UTR reporter interaction score (median-centred robust z-score of log2 firefly/Renilla activity); higher = less repression of the 3' UTR reporter
measurement-setup: HEK293T; 48 h
Please use 1 whenever 3' UTR reporter interaction score is not below -0.4, and -1 whenever it is.

residue-sequence	category-label
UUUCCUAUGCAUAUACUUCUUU	-1
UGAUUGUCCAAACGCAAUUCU	1
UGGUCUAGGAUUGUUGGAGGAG	1
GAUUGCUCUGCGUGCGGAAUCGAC	-1
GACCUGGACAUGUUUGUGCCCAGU	1
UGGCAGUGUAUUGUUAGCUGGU	1
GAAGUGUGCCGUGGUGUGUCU	1
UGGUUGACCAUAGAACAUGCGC	-1
UUCAAGUAAUUCAGGAUAGGUU	-1
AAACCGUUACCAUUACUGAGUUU	-1
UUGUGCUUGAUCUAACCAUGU	1
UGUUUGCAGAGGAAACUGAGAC	1
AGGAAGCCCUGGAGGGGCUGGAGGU	1
ACAUAGAGGAAAUUCCACGUUU	-1
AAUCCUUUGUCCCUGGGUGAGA	1
AACGCGCUUCCCUAUAGAGGG	-1
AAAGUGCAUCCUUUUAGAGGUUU	1
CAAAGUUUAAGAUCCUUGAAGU	1
UACAGUACUGUGAUAACUGAAG	1
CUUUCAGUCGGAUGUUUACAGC	1
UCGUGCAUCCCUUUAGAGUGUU	-1
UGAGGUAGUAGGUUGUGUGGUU	1
AUUACAUGGCCAAUCUC	1
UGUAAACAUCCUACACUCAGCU	1
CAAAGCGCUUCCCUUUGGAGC	1
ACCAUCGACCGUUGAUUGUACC	-1
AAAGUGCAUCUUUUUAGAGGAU	1
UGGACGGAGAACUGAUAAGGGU	1
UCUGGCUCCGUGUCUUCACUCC	1
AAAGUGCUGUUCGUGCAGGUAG	-1
AGGCACGGUGUCAGCAGGC	1
UUGCAUAGUCACAAAAGUGA	1
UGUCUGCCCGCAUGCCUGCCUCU	-1

====

System: EZH2
method-summary: 3' UTR reporter interaction score (median-centred robust z-score of log2 firefly/Renilla activity); higher = less repression of the 3' UTR reporter
measurement-setup: HEK293T; 48 h
Lab note: compare 3' UTR reporter interaction score against -0.2. Equal or greater, write yes (1). Smaller, write no (0).

residue-sequence	category-label
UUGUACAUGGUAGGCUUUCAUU	yes (1)
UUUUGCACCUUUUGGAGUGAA	yes (1)
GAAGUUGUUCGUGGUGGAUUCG	no (0)
UCGUGUCUUGUGUUGCAGCCG	yes (1)
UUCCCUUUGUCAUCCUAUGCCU	yes (1)
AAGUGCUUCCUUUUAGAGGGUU	no (0)
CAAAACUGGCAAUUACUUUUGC	yes (1)
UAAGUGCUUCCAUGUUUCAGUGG	no (0)
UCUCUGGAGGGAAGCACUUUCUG	yes (1)
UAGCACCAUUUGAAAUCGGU	yes (1)
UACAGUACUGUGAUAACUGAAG	no (0)
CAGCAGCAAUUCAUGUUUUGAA	no (0)
AAGUGCUGUCAUAGCUGAGGUC	no (0)
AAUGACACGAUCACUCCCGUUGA	yes (1)
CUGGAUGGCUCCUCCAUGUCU	no (0)
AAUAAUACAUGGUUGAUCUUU	yes (1)
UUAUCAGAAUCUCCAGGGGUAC	no (0)
AAUCAUACACGGUUGACCUAUU	yes (1)
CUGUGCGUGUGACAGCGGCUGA	no (0)
CAAGUCACUAGUGGUUCCGUUUA	yes (1)
AAAAGUGCUUACAGUGCAGGUAGC	no (0)
GUGUCUGCUUCCUGUGGGA	yes (1)
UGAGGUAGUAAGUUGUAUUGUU	no (0)
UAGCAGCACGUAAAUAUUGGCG	yes (1)
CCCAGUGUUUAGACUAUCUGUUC	yes (1)
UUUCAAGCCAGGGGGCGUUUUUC	no (0)
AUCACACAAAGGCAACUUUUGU	no (0)
CAAGAACCUCAGUUGCUUUUGU	yes (1)
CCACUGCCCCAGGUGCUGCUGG	yes (1)
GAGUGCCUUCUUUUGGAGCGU	yes (1)
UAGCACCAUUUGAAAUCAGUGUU	yes (1)
UGCUGACUCCUAGUCCAGGGC	yes (1)

====

Tested on: TP53
method-summary: 3' UTR reporter interaction score (median-centred robust z-score of log2 firefly/Renilla activity); higher = less repression of the 3' UTR reporter
measurement-setup: HEK293T; 48 h
Rule: class 1 for 3' UTR reporter interaction score not less than -0.5, class 0 for anything less.

residue-sequence	category-label
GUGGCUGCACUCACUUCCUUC	class 0
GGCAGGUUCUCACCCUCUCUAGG	class 1
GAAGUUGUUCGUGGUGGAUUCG	class 0
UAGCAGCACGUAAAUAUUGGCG	class 1
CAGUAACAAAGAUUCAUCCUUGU	class 0
ACUUGUAUGCUAGCUCAGGUAG	class 0
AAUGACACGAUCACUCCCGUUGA	class 1
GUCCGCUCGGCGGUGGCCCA	class 1
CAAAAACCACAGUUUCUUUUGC	class 1
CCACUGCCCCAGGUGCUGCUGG	class 0
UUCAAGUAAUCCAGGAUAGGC	class 1
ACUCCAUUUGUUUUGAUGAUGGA	class 1
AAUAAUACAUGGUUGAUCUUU	class 0
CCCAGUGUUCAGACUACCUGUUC	class 1
GAAAACAGCAAUUACCUUUGCA	class 1

Ref: the supplement of paper PMC5844555
